// reported TGI for each item listed
- Test system: A549 NSCLC
- ASSAY_SUMMARY: NCI tumour cell line growth inhibition, 48 h
Where a SMILES comes first, the peptide text is derived from it. [ ]: non-standard residue; d: D form. The star is where a group is joined. ξ: configuration not given here. NMeF = CN[C@@H](Cc1ccccc1)C(=O)O; NMeV = CN[C@H](C(=O)O)C(C)C; ξNMeN = CNC(CC(N)=O)C(=O)O; NMeA = CN[C@@H](C)C(=O)O; ξNMeV = CNC(C(=O)O)C(C)C; Boc = CC(C)(C)OC(=O)*

Record excerpt, results attached:
MOLECULE	MEASURED_PARAMETER	ENDPOINT_RESULT
COc1ccc(C(=O)c2sc3nc4c(cc3c2N)CCCC4)cc1OC	TGI	12.9 µM
c1ccc2nc(N/N=C3\CCCCC3C3CCCCC3)ccc2c1 (stereo not drawn)	TGI	29.1 µM
Cc1ccc(S(=O)(=O)C(CC(NC=O)S(=O)(=O)c2ccc(C)cc2)NC=O)cc1 (stereo not drawn)	TGI	> 100 µM
Cc1nc2cc(-c3nn(C(C)C)c4ncnc(N)c34)ccc2o1	TGI	0.31 µM
Cc1ccc(C2=Nc3c(N)nc(N)nc3NC(c3cccc(Nc4ccnc5cc(C(F)(F)F)ccc45)c3)C2)cc1 (stereo not drawn)	TGI	10.7 µM

Query string: Kindly indicate its recorded TGI. Item: Clc1c2ncccc2cc2n[nH]nc12
Result string: > 100 µM

Query string: Please give measured TGI of the following entry: CCOC(=O)[C@H]1Nc2ccc(Cl)cc2[C@H]2CCC[C@@H]12
Result string: > 100 µM

Query string: Please list TGI recorded for the molecule Cc1[nH]c(=O)nc2nc3ccc(Cl)cc3c(N(CCO)CCO)c12
Result string: > 100 µM

Query string: Identify measured TGI associated with CC(=O)Oc1cc(C(C)C)c(OCCN(C)C)cc1C
Result string: > 100 µM

Query string: Fill in reported TGI for this entry: CCOP(=O)(O)CC1OC(CO)C(O)C1O (stereo not drawn)
Result string: > 100 µM

Query string: Specify reported TGI for the molecule shown: COc1ccc2c(c1OC)-c1c(c3ccc([N+](=O)[O-])cc3c(=O)n1CCCN)C2=O
Result string: 9.27 µM

Query string: Consider the molecule CN(C)c1ccc(/C=C2\C[C@H]3[C@@H]4CC=C5C[C@@H](O)CC[C@]5(C)[C@H]4CC[C@]3(C)C2=O)cc1 and give its recorded TGI.
Result string: 44.4 µM

Query string: Identify measured TGI associated with CC12CCC([C@H](Nc3cc(C(F)(F)F)cc(C(F)(F)F)c3)C1=O)C2(C)C (stereo partly drawn)
Result string: > 100 µM

Query string: Please give the documented TGI of COC(=O)[C@H](C)N(C)C(=O)C(CC(N)=O)N(C)C(=O)[C@H](Cc1ccccc1)N(C)C(=O)[C@@H]1CCCN1C(=O)[C@H](C(C)C)N(C)C(=O)C(C(C)C)N(C)C(=O)[C@@H](NC(=O)OC(C)(C)C)C(C)C (stereo partly drawn) (Boc-V[ξNMeV][NMeV]P[NMeF][ξNMeN][NMeA]-OMe)
Result string: > 75 µM

Query string: Quickly give me recorded TGI for COc1ccc(-c2nc(Sc3c([N+](=O)[O-])ncn3C)n[nH]2)cc1
Result string: > 100 µM

Query string: Please report TGI for the following molecule: Clc1ccc(Cn2c(CN3CCCC3)nc3ccccc32)cc1
Result string: > 100 µM

Query string: Determine its reported TGI: CCC(C)NC(=S)N/N=C(\C)c1nc2ncccc2[nH]1 (stereo not drawn)
Result string: > 100 µM

Query string: In one line, give reported TGI of the entry NC(Cc1ccccc1)P(=O)(O)O (stereo not drawn) .
Result string: > 100 µM

Query string: State, in one line, measured TGI of Cn1c(-c2ccccc2)cc(-c2cccs2)c1-c1ccsc1
Result string: > 100 µM

---

Observed GI50 for U251 CNS, reported per entry below.
Where a SMILES comes first, the peptide text is derived from it. [ ]: non-standard residue; d: D form. The star is where a group is joined. ξ: configuration not given here. NMeF = CN[C@@H](Cc1ccccc1)C(=O)O; NMeV = CN[C@H](C(=O)O)C(C)C; ξNMeN = CNC(CC(N)=O)C(=O)O; NMeA = CN[C@@H](C)C(=O)O; ξNMeV = CNC(C(=O)O)C(C)C; Boc = CC(C)(C)OC(=O)*

COMPOUND	GI50
COC(=O)[C@H](C)N(C)C(=O)C(CC(N)=O)N(C)C(=O)[C@H](Cc1ccccc1)N(C)C(=O)[C@@H]1CCCN1C(=O)[C@H](C(C)C)N(C)C(=O)C(C(C)C)N(C)C(=O)[C@@H](NC(=O)OC(C)(C)C)C(C)C (some centres not stated) (Boc-V[ξNMeV][NMeV]P[NMeF][ξNMeN][NMeA]-OMe)	67.1 µM

Next compound, GI50 to be filled in.
Query string: Please list GI50 recorded for the compound C#CC[C@@H]1C[C@]2(C)[C@H]3CC[C@@H]4[C@H]5C(C(=C)C)CC[C@]5(C(=O)NCCCCN)CC[C@@]4(C)[C@]3(C)CC[C@H]2C(C)(C)[C@H]1OC(C)=O (some centres not stated)
Result string: 1.81 µM

---

- System: HCT-116 colon
- ASSAY_SUMMARY: NCI tumour cell line growth inhibition, 48 h
MEASURED_PARAMETER: TGI

> print(dat)
                                   molecule  measured.parameter  endpoint.result
1  CC(C)N(CCCNC(=O)Nc1ccc(C(C)(C)C)cc1)C[C@H]1O[C@@H](n2ccc3c(N)ncnc32)[C@H](O)[C@@H]1O                 TGI         > 100 µM

Query string: Using known records, supply TGI for Cc1cc(N(CCC#N)CCC#N)ccc1/C=N/NC(=O)c1ccccc1
Result string: > 92.6 µM

Query string: Write down TGI measured for item Cc1[nH]n(-c2ncc(C(=O)O)c(=O)[nH]2)c(=O)c1CCO
Result string: > 100 µM

Query string: Query TGI for S=c1[nH]nc(-c2ccccc2)n1/N=C\c1ccc(-c2ccc(Cl)cc2)o1
Result string: > 100 µM

Query string: Identify the reported TGI for the following entry. CC(C)NC(C)C(C)c1ccccc1 (configuration not stated)
Result string: > 100 µM

Query string: Input COc1ccc(-c2nc(Sc3c([N+](=O)[O-])ncn3C)n[nH]2)cc1 , output reported TGI.
Result string: > 100 µM

Query string: Specify TGI for O=C1OCC2=C1C(c1ccc3c(c1)OCO3)c1cc3c(cc1O2)OCO3 (configuration not stated) and stop.
Result string: 41.5 µM

Query string: Look up TGI of O=C1C=CC2(O)OC/C(=C\c3ccccc3)C(O)=C2C1=O (configuration not stated) and report it.
Result string: 4.08 µM

Query string: Fill in TGI for record COC[C@@H]1[C@H]2OC(C)(C)O[C@H]2C(=O)N1C(=O)c1ccc(OC)cc1
Result string: > 100 µM

Query string: Check the records and state TGI for COc1ccc(/C=C/C2C(C#N)=C(N)OC3=C2C(=O)CCC3)cc1 (configuration not stated)
Result string: 20 µM

Query string: Please indicate TGI recorded for C[C@@H](O)CCC(=O)c1ccoc1
Result string: > 100 µM

Query string: Fill in TGI for record NS(=O)(=O)c1cc2c(cc1Cl)NC(/C(=N/NC(=O)c1ccncc1)C1C(=O)NC(=O)NC1=O)=NS2(=O)=O
Result string: > 100 µM

Query string: Consider the molecule O=C1C(C=NC(=S)c2ccccc2)=C(O)c2ccccc21 and give its recorded TGI.
Result string: > 100 µM

Query string: Given Cc1nc2cc(-c3nn(C(C)C)c4ncnc(N)c34)ccc2o1 , respond with its TGI.
Result string: > 10 µM

Query string: Provide measured TGI value, entry: S=C(Nc1ccccc1)c1ccc(CN2CCCCC2)s1
Result string: 34.5 µM

Query string: Retrieve TGI measured for O=C1Nc2c(Cl)cc(Cl)cc2C1=O and print it.
Result string: 40.5 µM

Query string: Quote TGI reported for CC(C)Oc1ccc(-c2nn([C@@H](C)c3oc4ccc(F)cc4c(=O)c3-c3cccc(F)c3)c3ncnc(N)c23)cc1F please.
Result string: > 100 µM

Query string: Give TGI for the following molecule: COc1cc2c(cc1OCCCN1CCN(C)CC1)N=C[C@@H]1CCCN1C2=O
Result string: 9.47 µM

Query string: Please give the documented TGI of Cn1cnc([N+](=O)[O-])c1Sc1nc2ccccc2s1
Result string: 18.7 µM

---

- Test system: UO-31 renal
- ASSAY_SUMMARY: NCI tumour cell line growth inhibition, 48 h
MEASURED_PARAMETER: TGI (µM)
Supply the numeric figure in µM, leaving out any unit text.

Example results:
COMPOUND	TGI [µM]
CNCCCNc1nc2ccccc2c2c(=O)c3cc(F)ccc3sc12	2.58
COc1cc(-c2nn(-c3cccc(NC(=O)Nc4cccc(C(F)(F)F)c4)c3)cc2-c2ccncc2)ccc1Cl	3.04

Query string: Respond only with TGI recorded for O=C1/C=C/[C@@H](O)[C@@H]2C[C@@H](O)C[C@H]2/C=C/CCC[C@H](CCc2ccccc2)O1
Result string: 13.4

Query string: Determine its reported TGI: CCN(CC)CC(O)CNc1c2ccc(Cl)cc2nc2ccc(OC)cc12 (stereo not given)
Result string: 3.41

Origin of measurements: PubChem BioAssay (NCI)
